# METHOD_DESCRIPTION: Growth inhibition of human WBC cells assessed as cell viability at 100 uM incubated for 24 hrs by MTT assay
# Type: cell-based
# RUN_PARAMETERS: WBC cells (white blood cells), read-out: Activity
READOUT_TYPE: viability at 24 h, 100 µM (%)
One number for each entry, in %.

These solved cases illustrate the format of a correct answer.
COc1ccc(C(OC[C@H]2O[C@@H](n3ccc(=O)[nH]c3=O)[C@H](O)[C@@H]2O)(c2ccccc2)c2ccc(OC)cc2)cc1 has a reported viability at 24 h, 100 µM of 82.7

CC[C@@]1(O)C(=O)OCc2c1cc1n(c2=O)Cc2cc3ccccc3nc2-1 [CAMPTOTHECIN] has a reported viability at 24 h, 100 µM of 34.6

CC(C)(C)[Si](OC[C@H]1O[C@@H](n2ccc(N)nc2=O)[C@H](O)[C@@H]1O)(c1ccccc1)c1ccccc1 has a reported viability at 24 h, 100 µM of 100

CC(C)(C)[Si](OC[C@H]1O[C@@H](n2cnc3c(N)ncnc32)[C@H](O)[C@@H]1O)(c1ccccc1)c1ccccc1 has a reported viability at 24 h, 100 µM of 59.3

CC(=O)O[C@@H]1[C@H](OC(C)=O)[C@@H](CO[Si](c2ccccc2)(c2ccccc2)C(C)(C)C)O[C@H]1n1ccc(=O)[nH]c1=O has a reported viability at 24 h, 100 µM of 100

For each listed entry, give its viability at 24 h, 100 µM.
1. COc1ccc(C(OC[C@H]2O[C@@H](n3ccc(=O)[nH]c3=O)[C@H](OC(C)=O)[C@@H]2OC(C)=O)(c2ccccc2)c2ccc(OC)cc2)cc1
2. CC(C)(C)[Si](OC[C@H]1O[C@@H](n2ccc(=O)[nH]c2=O)[C@H](O)[C@@H]1O)(c1ccccc1)c1ccccc1

[100, 61.5]
